quantity: melting point

Lookup: Give the reported value of melting point for this record: `CC1(C)CC(=C(c2ccc(O)cc2)c2ccc(OCC(=O)O)cc2)CC(C)(C)C1`
Found: 163 to 164 °C

Lookup: Give the reported value of melting point for this record: `CC1(C)CC(=C(c2ccc(O)cc2)c2ccc(CCCO)cc2)CC(C)(C)C1`
Found: 160 to 161 °C

Others:
Lookup: Give the reported value of melting point for this record: `CC1(C)CC(=C(c2ccc(/C=C/C(=O)O)cc2)c2ccc(O)c(F)c2)CC(C)(C)O1`
Found: 125 to 128 °C

Lookup: Give the reported value of melting point for this record: `CC1(C)CC(=C(c2ccc(/C=C/C(=O)O)cc2)c2ccc(O)c(F)c2)CC(C)(C)C1`
Found: 193 to 195 °C

Lookup: Give the reported value of melting point for this record: `CC1(C)CC(=C(c2ccc(O)cc2)c2ccc(CO)cc2)CC(C)(C)C1`
Found: 134 to 135 °C

Lookup: Give the reported value of melting point for this record: `CC1(C)CC(=C(c2ccc(O)cc2)c2ccc(CCC(=O)O)cc2)CC(C)(C)C1`
Found: 243 to 244 °C

Lookup: Give the reported value of melting point for this record: `C#Cc1ccc(C(=C2CC(C)(C)CC(C)(C)C2)c2ccc(O)cc2)cc1`
Found: 138 to 139 °C

Lookup: Give the reported value of melting point for this record: `N#Cc1ccc(C(=C2CCCCCC2)c2ccc(O)cc2)cc1`
Found: 110 to 111 °C
